The reported numbers originate from PubChem BioAssay AID2599.

ASSAYED_TARGET: Sentrin-specific protease 6 (Homo sapiens)
ASSAY_NOTES: SENP6 protease inhibitors, primary screen, biochemical, luminescence, uHTS (AID 2599)
STATED_CONDITIONS: Recombinant SENP6 catalytic domain, aminoluciferin luminescence; at 10 µM
The campaign covered roughly 330,000 compounds. About 5,800 (1.8%) were called active.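 The calls were made as follows: active = inhibition above about 50% at the single tested dose (limit read from the data); inactive = the rest.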 The full list was thinned out, with actives kept by preference.
Hi! Could you answer with just one of these? YES (active), NO (inactive)

Some entries whose results are on file:
[[record]]
molecule = "COc1ccc(Nc2nc(-c3ccccc3)cs2)cc1"
classification = "YES"

[[record]]
molecule = "COc1ccc(-n2nnnc2CNC(=O)c2ccc3ccccc3c2)cc1"
classification = "NO"

[[record]]
molecule = "CCOc1ccccc1NC(=O)Cn1nnc(C(=O)NCc2cccs2)c1N"
classification = "NO"

[[record]]
molecule = "COc1ccc(C2=NN(c3nc4ccccc4s3)C(=O)C2)cc1"
classification = "NO"

[[record]]
molecule = "O=S(=O)(NC1CCCCC1)c1ccc(F)c2ccccc12"
classification = "NO"

[[record]]
molecule = "Cc1nnc(SCC(=O)Nc2ccc(S(=O)(=O)Nc3ccc(Cl)nn3)cc2)s1"
classification = "NO"

[[record]]
molecule = "Cc1cccc(-c2noc(-c3ccc(F)cc3)n2)c1"
classification = "YES"

[[record]]
molecule = "Fc1cccc(Cl)c1COc1ccc(-c2nnco2)cc1"
classification = "NO"


Query block: Answer briefly: the call reported for c1ccc(Nc2nc(-c3ccncc3)cs2)nc1 in this assay.
Result block: YES

Query block: Short answer needed: outcome of this test for Clc1ccc(-c2csc(-c3ccncc3)n2)cc1 ?
Result block: NO

Query block: Assay result, entry COc1ccc(-c2csc(NC(=O)COC(=O)Cc3ccc(Cl)cc3Cl)n2)cc1 — outcome?
Result block: NO
